- Tested on: DMS 114 tumor spheroids, viability % test/control
- assay_remarks: Anticancer human tumor DMS 114 cell line growth inhibition;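 note: luminescence used as a proxy for viable cells; spheroids exposed to compounds for 7 days before read-out; 100% = DMSO vehicle control viability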
- experimental_context: second compound 10 µM; first compound 0.0316 µM; stronger effect = lower value; spheroids with HUVEC and MSC
assay_endpoint: viability, T/C (%)
Could you give me the number in %? Just the number is fine.

These solved cases illustrate the format of a correct answer.
Cc1cc(C)c(CNC(=O)c2cc(-c3ccc(CN4CCOCC4)cc3)cc3c2cnn3C2CCCC2)c(=O)[nH]1 + Cn1nnc2c(C(N)=O)ncn2c1=O | 110
COc1cc(C)[nH]c(=O)c1CN1CCc2c(Cl)cc(C(OC)C3COC3)c(Cl)c2C1=O (stereo unspecified) + Cn1nnc2c(C(N)=O)ncn2c1=O | 115
COc1ccc([C@@H](O)c2cc(-c3ncnc4cc(N5CCOCC5)ccc34)c(F)cc2Cl)nn1 + Cn1nnc2c(C(N)=O)ncn2c1=O | 100
CC1COCCN1c1cc(-c2ccnn2C)c2ccnc(-c3ccn[nH]3)c2n1 (stereo unspecified) + Cn1nnc2c(C(N)=O)ncn2c1=O | 51
CC(C)n1c(=O)n(C)c2cnc3cc(F)c(-c4ccc(OCCCN5CCCCC5)nc4)cc3c21 + Cn1nnc2c(C(N)=O)ncn2c1=O | 103

Then there is this molecule:
Note to self: viability, T/C recorded for [2H]c1nc(C)nc([2H])c1-c1cc(NC[C@@H](C)c2cccc3c(C(=O)NC)ccnc23)ncn1 + Cn1nnc2c(C(N)=O)ncn2c1=O was 110

----------
- Tested on: DMS 114 tumor spheroids, viability % test/control
- assay_remarks: Anticancer human tumor DMS 114 cell line growth inhibition;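 note: luminescence used as a proxy for viable cells; spheroids exposed to compounds for 7 days before read-out; 100% = DMSO vehicle control viability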
- experimental_context: second compound 0.003 µM; first compound 0.1 µM; stronger effect = lower value; spheroids with HUVEC and MSC
Quick reference: viability, T/C of the listed items.
Answer in %, number only, no unit symbol.

Worked examples, 2 molecules total:
CC1COCCN1c1cc(-c2ccnn2C)c2ccnc(-c3ccn[nH]3)c2n1 (stereo not drawn) + COc1cc2c(cc1O)CCNC21CSC2c3c(OC(C)=O)c(C)c4c(c3C(COC1=O)N1C(O)C3Cc5cc(C)c(OC)c(O)c5C(C21)N3C)OCO4 | 0.22
Cc1cc(C)c(CNC(=O)c2cc(-c3ccc(CN4CCOCC4)cc3)cc3c2cnn3C2CCCC2)c(=O)[nH]1 + CC[C@@]1(O)C(=O)OCc2c1cc1n(c2=O)Cc2cc3c(CN(C)C)c(O)ccc3nc2-1 | 117

Just so you know, measured viability, T/C for COc1cc(C)[nH]c(=O)c1CN1CCc2c(Cl)cc(C(OC)C3COC3)c(Cl)c2C1=O (stereo not drawn) + CC[C@@]1(O)C(=O)OCc2c1cc1n(c2=O)Cc2cc3c(CN(C)C)c(O)ccc3nc2-1 came out at 88.5

----------
- Test system: DMS 114 tumor spheroids, viability % test/control
- assay_remarks: Anticancer human tumor DMS 114 cell line growth inhibition;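 note: luminescence used as a proxy for viable cells; spheroids exposed to compounds for 7 days before read-out; 100% = DMSO vehicle control viability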
- experimental_context: second compound 94.9 pM; first compound 3 µM; stronger effect = lower value; spheroids with HUVEC and MSC
viability, T/C values by entry
Provide the reading as a plain figure in %.

Cc1sc2c(c1C)C(c1ccc(Cl)cc1)=NC(CC(=O)Nc1ccc(O)cc1)c1nnc(C)n1-2 (centres undefined) + COc1cc2c(cc1O)CCNC21CSC2c3c(OC(C)=O)c(C)c4c(c3C(COC1=O)N1C(O)C3Cc5cc(C)c(OC)c(O)c5C(C21)N3C)OCO4 | 1.91
Cn1ncnc1[C@H]1c2n[nH]c(=O)c3cc(F)cc(c23)N[C@@H]1c1ccc(F)cc1 + COc1cc2c(cc1O)CCNC21CSC2c3c(OC(C)=O)c(C)c4c(c3C(COC1=O)N1C(O)C3Cc5cc(C)c(OC)c(O)c5C(C21)N3C)OCO4 | 7.38

Tested system DMS 114 tumor spheroids, viability % test/control; viability, T/C recorded for O=C(c1cc(Cc2n[nH]c(=O)c3ccccc23)ccc1F)N1CCN(C(=O)C2CC2)CC1 + COc1cc2c(cc1O)CCNC21CSC2c3c(OC(C)=O)c(C)c4c(c3C(COC1=O)N1C(O)C3Cc5cc(C)c(OC)c(O)c5C(C21)N3C)OCO4 was 57.2

Measured viability, T/C (DMS 114 tumor spheroids, viability % test/control), entry CNCc1ccc(-c2cc(-c3nc(-c4ccc(S(=O)(=O)C(C)C)cc4)cnc3N)on2)cc1 + COc1cc2c(cc1O)CCNC21CSC2c3c(OC(C)=O)c(C)c4c(c3C(COC1=O)N1C(O)C3Cc5cc(C)c(OC)c(O)c5C(C21)N3C)OCO4 : 0.17
